SYSTEM_NAME: hS1P1 receptor (Homo sapiens)
Construct: host or cells: U2OS
ASSAY_DETAILS: hS1P1 receptor internalization assay (cell imaging-based, hS1P1-eGFP U2OS cells)
SETUP_CONDITIONS: 1 h; U2OS cell line expressing hS1P1-eGFP; efficacy (Max); compounds incubated at 37° C. for one hour; read-out: hS1P1 Receptor Internalization (biolimaging) Max (%)
Structures can show the parent of a compound that is named as a salt.
ASSAY_ENDPOINT: Emax (%)

Here is how some compounds turned out for Emax.
O=C(O)C1CN(Cc2ccc(-c3nc4ccc(C5(c6ccccc6)CCO5)nc4s3)c(F)c2)C1 (stereo not shown) [Example 9]	144
O=C(O)CC1CN(Cc2ccc(-c3nc4ccc(C5(c6ccccc6)CC5)nc4s3)c(F)c2)C1 [Example 79]	150
O=C(O)C1CN(Cc2ccc(-c3nc4ccc(C5(C6CCOCC6)CC5)nc4s3)c(F)c2)C1 [Example 52, trifluoroacetic acid salt]	109
OCC(CO)Cc1ccc(-c2nc3ccc(C4(c5ccccc5)CC4)nc3s2)c(F)c1 [Example 29]	91

(I) O=C(O)[C@H]1C[C@@H](Nc2ccc(-c3nc4ccc(C5(c6ccccc6)CC5)nc4s3)c(F)c2)C1 [Example 130]
(II) CC(C)(N)c1ccc(-c2nc3ccc(C4(c5ccccc5)CC4)nc3s2)c(F)c1 [Example 22]
(III) CS(=O)(=O)NCCc1ccc(-c2nc3ccc(C4(c5ccccc5)CC4)nc3s2)c(F)c1 [Example 61]
Order by Emax, ascending. Order the labels as requested and list them. I, II, III
(I: 89%, II: 157%, III: 491%)

----------
SYSTEM_NAME: hS1P1 receptor (Homo sapiens, UniProt P21453)
Construct: host or cells: U2OS
Sequence (P21453 whole entry): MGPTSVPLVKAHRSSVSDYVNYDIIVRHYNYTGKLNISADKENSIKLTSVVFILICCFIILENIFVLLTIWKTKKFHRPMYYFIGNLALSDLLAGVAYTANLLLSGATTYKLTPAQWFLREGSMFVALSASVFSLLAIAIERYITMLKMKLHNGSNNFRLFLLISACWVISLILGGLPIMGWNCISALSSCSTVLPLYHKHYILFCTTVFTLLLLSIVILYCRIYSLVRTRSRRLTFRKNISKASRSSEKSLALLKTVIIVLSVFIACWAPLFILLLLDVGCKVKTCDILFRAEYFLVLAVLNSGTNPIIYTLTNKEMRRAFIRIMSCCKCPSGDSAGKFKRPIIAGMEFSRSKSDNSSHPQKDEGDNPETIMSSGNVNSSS
ASSAY_DETAILS: hS1P1 receptor internalization assay (cell imaging-based, hS1P1-eGFP U2OS cells)
SETUP_CONDITIONS: 1 h; U2OS cell line expressing hS1P1-eGFP; efficacy (Max); compounds incubated at 37° C. for one hour; read-out: hS1P1 Receptor Internalization (biolimaging) Max (%)
ASSAY_ENDPOINT: Emax (%)

O=C(O)C1CN(Cc2ccc(-c3nc4ccc(C5(c6ccccc6)CCCCC5)nc4s3)c(F)c2)C1 [Example 7]	108

(a) O=C(O)CCNC(=O)c1ccc(-c2nc3ccc(C4(c5ccccc5)CC4)nc3s2)c(F)c1 [Example 14]
(b) NC(CO)(CCc1ccc(-c2nc3ccc(C4(c5ccccc5)CC4)nc3s2)c(F)c1)COP(=O)(O)O (racemic) [Example 43]
(c) CN(CCO)C(=O)c1ccc(-c2nc3ccc(C4(c5ccccc5)CC4)nc3s2)c(F)c1 [Example 109]
Order by Emax, ascending. Order the labels as requested and list them. c, a, b

(1) Cc1cc(CN2CC(C(=O)O)C2)ccc1-c1nc2ccc(C3(c4ccccc4)CC3)nc2s1 [Example 19]
(2) O=C(NC1CC1)c1ccc(-c2nc3ccc(C4(c5ccccc5)CC4)nc3s2)c(F)c1 [Example 113]
Hi team, can someone confirm which has the larger Emax: 1 or 2 ? Thanks. Mark your answer with the label of the selected entry. 1

----------
SYSTEM_NAME: hS1P1 receptor (Homo sapiens)
ASSAY_DETAILS: hS1P1 receptor internalization assay (cell imaging-based, hS1P1-eGFP U2OS cells)
SETUP_CONDITIONS: U2OS cell line expressing hS1P1-eGFP; compounds incubated at 37° C. for one hour; GFP-containing endosomes per cell (ArrayScan); read-out: hS1P1 Receptor Internalization (bioimaging) EC50 IP
Counter-ions that a name gives are not always drawn.
ASSAY_ENDPOINT: EC50 (nM)

O=C(O)C1CN(Cc2ccc(-c3nc4ccc(C5(c6ccccc6)CC=CC5)nc4s3)c(F)c2)C1	130
N[C@H](CC(=O)O)C(=O)Nc1ccc(-c2nc3ccc(C4(c5ccccc5)CC4)nc3s2)c(F)c1 [Example 126, TFA salt]	0.6
CC(C)(N)c1ccc(-c2nc3ccc(C4(c5ccccc5)CC4)nc3s2)c(F)c1	192
O=C(NC1CC1)c1ccc(-c2nc3ccc(C4(c5ccccc5)CC4)nc3s2)c(F)c1	732
CNc1ccc(-c2nc3ccc(C4(c5ccccc5)CC4)nc3s2)c(F)c1	777

(I) O=C(O)C1CN(Cc2ccc(-c3nc4ccc(C5(C6CCOCC6)CC5)nc4s3)c(F)c2)C1 [Example 52, trifluoroacetic acid salt]
(II) O=C(O)CCc1ccc(-c2nc3ccc(C4(c5ccccc5)CC4)nc3s2)c(F)c1
Hi team, can someone confirm which has the larger EC50: I or II ? Thanks. Mark your answer with the label of the selected entry. II
